System: MS2 coat protein
assay.info: apparent KD of MS2 coat protein, switch OFF state (with FMN for OFF switches, without FMN for ON switches); designed switch direction (-1 OFF switch, 1 ON switch): -1; higher = weaker reporter binding
details: FMN input: 0 or 200 uM; Eterna round: R93 (includes R88 designs)
Assign class by apparent KD of MS2 coat protein: not lower than 50 nM means Fulfilled; lower than 50 nM means Not fulfilled.

Task: Dear colleague, could you confirm whether AAAAAGUGAGGAUAUUCGGAUAGGAAAACGAAAACCUAUCCGAAGAAGGCACAUGAGGAUCACCCAUGUGGGAA [67% Ecls-II - Early G + late G segment 3] has apparent KD of MS2 coat protein at or above 50 nM?
Output: Fulfilled

Task: Moving on to CUCUUGUAAGGAUAUCACCACACAAAAAAAAAAAAGUGUGGUGAGAAGGUACAUGAGGAUCACCCAUGUACUAA [Banishment 12 - Jieux - Exclusion 4]
Output: Not fulfilled

Task: Moving on to UCCACACAUGAGGAUCACCCAUGUGAGGAUAUCUAGAAAACCUCAUGUAAAAAAAUCUAGAGAAGGCACAUGAA [Design 92: Pseudoknot B]
Output: Not fulfilled

Task: Moving on to GAAAUACAUGAGGAUCACCCAUGUGAGGAUAUGCUAUGGAAAUAAAAAAUAAAACAUAGCAGAAGGUACAAAAG [Mat - Exclusion 1 - Eli mod - D43]
Output: Fulfilled

Task: Moving on to AUCAUGUAAGGAUAUGACUACAUAAAAAAAAAAAAAUGUAGUCAGAAGGUACAUGAGGAUCACCCAUGUACAAA [Mod of Brourd]
Output: Not fulfilled
